Hello, the source for this data is patent US12178842B2, in case you need it.

Below: a set of entries, each annotated with reported pKi.
- TESTED_ON: PCSK9 (Homo sapiens, UniProt Q8NBP7)
- Construct: biotin (biotinylated); purchased
- Sequence (Q8NBP7 153-692): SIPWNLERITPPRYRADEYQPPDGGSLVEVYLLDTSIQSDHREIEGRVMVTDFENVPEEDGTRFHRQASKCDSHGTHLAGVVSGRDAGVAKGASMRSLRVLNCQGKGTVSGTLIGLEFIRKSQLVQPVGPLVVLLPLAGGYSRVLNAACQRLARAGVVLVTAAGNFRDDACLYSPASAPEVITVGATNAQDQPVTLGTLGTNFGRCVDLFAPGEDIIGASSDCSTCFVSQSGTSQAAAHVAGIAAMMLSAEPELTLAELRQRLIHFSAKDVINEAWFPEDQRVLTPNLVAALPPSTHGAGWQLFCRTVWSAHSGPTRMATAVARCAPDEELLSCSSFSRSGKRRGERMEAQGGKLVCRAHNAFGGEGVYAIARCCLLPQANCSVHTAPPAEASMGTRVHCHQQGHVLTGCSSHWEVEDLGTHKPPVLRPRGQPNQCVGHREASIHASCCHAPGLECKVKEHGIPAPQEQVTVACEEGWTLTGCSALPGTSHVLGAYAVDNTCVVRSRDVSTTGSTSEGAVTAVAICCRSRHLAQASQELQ
- PROTOCOL_DESCRIPTION: PCSK9 Alexa FRET Standard TR-FRET assay
- Assay type: binding
- DETAILS: Ki calculated from IC50 and KD of AF cyclic peptide Reagent A; 0.5 nM PCSK9, 20 nM AF cyclic peptide; read-out: Alexa FRET Stdt TR-FRET
pKi: −log10 of the molar value.

Consider the worked cases shown below.
Sample `CCCCCCC(=O)NCCCCCCCC(=O)N[C@@H](CCC(=O)NCCOCCOCC(=O)NCCOCCOCC(=O)NCC[N+](C)(C)CCCCCC(=O)NC[C@H]1NC(=O)[C@H](C)NC(=O)CCC(=O)N2CCCCCCn3cc(c4cc(F)ccc43)C[C@@H]3NC(=O)[C@H](Cc4cccc(c4)CNC(=O)CO[C@H]4CCN(C3=O)[C@@H]4C(=O)N[C@@H]([C@@H](C)O)C(=O)N[C@@H](Cc3ccc(OC)cc3)C(=O)N3CCC[C@@]3(C)C(=O)NCCc3ccc(cc3)C2)NC1=O)C(=O)O` ; pKi observed: > 8.90

Summary for this compound, `COc1ccc(C[C@@H]2NC(=O)[C@H]([C@@H](C)O)NC(=O)[C@@H]3[C@@H]4CCN3C(=O)[C@@H]3Cc5cn(c6ccc(F)cc56)CCCCCCN(Cc5ccc(cc5)CCNC(=O)[C@]5(C)CCCN5C2=O)C(=O)CCC(=O)N[C@@H](CNC(=O)COCCOCC[N+](C)(C)CCNC(=O)COCCOCCNC(=O)COCCOCCNC(=O)CC[C@H](NC(=O)CCCCCCCCCCCCCCCCC(=O)O)C(=O)O)C(=O)N[C@H](CNC(=O)CCOCCOCC[N+](C)(C)C)C(=O)N[C@@H](Cc2cccc(c2)CNC(=O)CO4)C(=O)N3)cc1` : pKi is > 8.90

pKi recorded for this compound, `COc1ccc(C[C@@H]2NC(=O)[C@H]([C@@H](C)O)NC(=O)[C@@H]3[C@@H]4CCN3C(=O)[C@@H]3Cc5cn(c6ccc(F)cc56)CCCCCCN(Cc5ccc(cc5)CCNC(=O)[C@]5(C)CCCN5C2=O)C(=O)CCC(=O)N[C@@H](C)C(=O)N[C@H](CNC(=O)CC[C@H](NC(=O)CCOCCOCC[N+](C)(C)CCNC(=O)COCCOCCNC(=O)COCCOCCNC(=O)CC[C@H](NC(=O)CCCCCCCCCCCCCCCCC(=O)O)C(=O)O)C(=O)O)C(=O)N[C@@H](Cc2cccc(c2)CNC(=O)CO4)C(=O)N3)cc1` , is > 8.90

Entry `COc1ccc(C[C@@H]2NC(=O)[C@H]([C@@H](C)O)NC(=O)[C@@H]3[C@@H]4CCN3C(=O)[C@@H]3Cc5cn(c6ccc(F)cc56)CCCCCCN(Cc5ccc(cc5)CCNC(=O)[C@]5(C)CCCN5C2=O)C(=O)CCC(=O)N[C@@H](C)C(=O)N[C@H](CNC(=O)CCOCCOCCNC(=O)CCCCCCCCCCCCCCCCC(=O)O)C(=O)N[C@@H](Cc2cccc(c2)CNC(=O)CO4)C(=O)N3)cc1` ; pKi = > 8.90

Data point: `COc1ccc(C[C@@H]2NC(=O)[C@H]([C@@H](C)O)NC(=O)[C@@H]3[C@@H]4CCN3C(=O)[C@@H]3Cc5cn(c6ccc(F)cc56)CCCCCCN(Cc5ccc(cc5)CCNC(=O)[C@]5(C)CCCN5C2=O)C(=O)CCC(=O)N[C@@H](C)C(=O)N[C@H](CN(CCC[N+](C)(C)C)C(=O)COCCOCCNC(=O)COCCOCCNC(=O)CC[C@H](NC(=O)CCCCCCCCCCCCCCCCC(=O)O)C(=O)O)C(=O)N[C@@H](Cc2cccc(c2)CNC(=O)CO4)C(=O)N3)cc1` ; pKi = > 8.90

Please examine the following record next.
What the record says about `COc1ccc(C[C@@H]2NC(=O)[C@H]([C@@H](C)O)NC(=O)[C@@H]3[C@@H]4CCN3C(=O)[C@@H]3Cc5cn(c6ccc(F)cc56)CCCCCCN(Cc5ccc(cc5)CCNC(=O)[C@]5(C)CCCN5C2=O)C(=O)CCC(=O)N[C@@H](CNC(=O)COCCOCCNC(=O)COCCOCCNC(=O)CC[C@H](NC(=O)CCCCCCCCCCCCCCCCC(=O)O)C(=O)O)C(=O)N[C@H](CNC(=O)CCOCCOCC[N+](C)(C)C)C(=O)N[C@@H](Cc2cccc(c2)CNC(=O)CO4)C(=O)N3)cc1` : pKi is > 8.90
